# EXPERIMENTAL_SYSTEM: HLA A0101 (human)
# METHOD: 125I-probe competition, purified HLA
pIC50: −log10 of the molar value.
Let's look at some binders and their measured pIC50.
OBSERVABLE: pIC50

1. NTELYNLLI (modifications not checked) [HPV45.E6.95] :: 7.49
2. LSQMVQWAY (modifications not checked) [HPV16/31.E1.357] :: 7.68
3. KSAIVTLTY (modifications not checked) [HPV16.E2.329] :: 8.05
4. AFTDLTIVY (modifications not checked) [HPV31.E6.46] :: 7.51
5. NTGILTVTY (modifications not checked) [HPV45.E2.332] :: 6.47
